tested on: SF-268; test: NCI tumour cell line growth inhibition, 48 h
Activity calls are given as the source filed them. Rule as the data show it: active = GI50 up to about 1.1 µM and inactive = higher.
Classes used: true (1) for active, false (0) for inactive

COMPOUND: CCCNC1CC(n2cc(C)c(=O)[nH]c2=O)OC1CO (configuration not stated)
TARGET ENTITY: SF-268
ASSIGNED CATEGORY: false (0)
//
COMPOUND: Cc1cc(N(CCC#N)CCC#N)ccc1/C=C(\NC(=O)/C=C/c1ccccc1)C(=O)N=[N+]=[N-]
TARGET ENTITY: SF-268
ASSIGNED CATEGORY: false (0)
//
COMPOUND: CCCCCC(C(O)C#N)C(O)(C(F)(F)F)C(F)(F)F (configuration not stated)
TARGET ENTITY: SF-268
ASSIGNED CATEGORY: false (0)
//
COMPOUND: COc1c(Sc2ccccc2)cc(Sc2ccccc2)c2cccnc12
TARGET ENTITY: SF-268
ASSIGNED CATEGORY: false (0)
//
COMPOUND: COC(=O)C(=O)C(C(=O)C(=O)Nc1ccc(F)cc1)c1nc2ccc([N+](=O)[O-])cc2nc1O (configuration not stated)
TARGET ENTITY: SF-268
ASSIGNED CATEGORY: false (0)
//
COMPOUND: CN1c2ccc(O)c(O)c2-c2cc(O)cc3c2C1CCC3 (configuration not stated)
TARGET ENTITY: SF-268
ASSIGNED CATEGORY: false (0)
//
COMPOUND: O=C(CC(=O)C1CCOC1=O)C(=O)Nc1ccc(Cl)cc1 (configuration not stated)
TARGET ENTITY: SF-268
ASSIGNED CATEGORY: false (0)
//
COMPOUND: CC1=C(C(=O)Nc2ccccc2C)C(c2ccccc2O)C(C(=O)Nc2ccccc2C)=C(C)N1
TARGET ENTITY: SF-268
ASSIGNED CATEGORY: false (0)
//
COMPOUND: CN1CCN(c2ccc3nc(C4=C(O)C(=O)[C@@H]5C(=C4O)N=C(CO)N5C)[nH]c3n2)CC1
TARGET ENTITY: SF-268
ASSIGNED CATEGORY: false (0)
//
COMPOUND: COC1(OC)CC(CO)(CNc2nc(N)nc(Cl)c2/C=N\O)C1
TARGET ENTITY: SF-268
ASSIGNED CATEGORY: false (0)
//
COMPOUND: CC1(C)OC2OC(C(COS(=O)(=O)C(F)(F)F)N=[N+]=[N-])C(OC(=O)c3ccccc3)C2O1 (configuration not stated)
TARGET ENTITY: SF-268
ASSIGNED CATEGORY: false (0)
//
COMPOUND: COc1ccc2nc3c4c(nccc4c2c1)-c1ncccc1C3=O
TARGET ENTITY: SF-268
ASSIGNED CATEGORY: true (1)
//
COMPOUND: C=C1C(=O)O[C@@H]2O[C@@]3(C)CC[C@H]4[C@H](C)CC[C@@H]1[C@@]24O3
TARGET ENTITY: SF-268
ASSIGNED CATEGORY: false (0)
//
COMPOUND: COc1ccccc1NC(=S)NNC(=O)c1cc(-c2ccccc2)nc2ccccc12
TARGET ENTITY: SF-268
ASSIGNED CATEGORY: false (0)
//
COMPOUND: O=C(CCc1cc(-c2ccccc2)[nH]c(=S)n1)Nc1ccccc1[N+](=O)[O-]
TARGET ENTITY: SF-268
ASSIGNED CATEGORY: false (0)
//
COMPOUND: O=C(OCCN=C1c2ccccc2CCc2ccccc21)c1cc([N+](=O)[O-])cc([N+](=O)[O-])c1
TARGET ENTITY: SF-268
ASSIGNED CATEGORY: false (0)
//
COMPOUND: O=C(CC1(O)C(=O)Nc2ccc(Br)cc21)c1ccc(Cl)cc1Cl (configuration not stated)
TARGET ENTITY: SF-268
ASSIGNED CATEGORY: false (0)
//
COMPOUND: C#CC1(O)CCCCCCCCC2(CCCCCCCC1)OCCO2
TARGET ENTITY: SF-268
ASSIGNED CATEGORY: false (0)
//
COMPOUND: c1ccc(NCn2cnc3ccccc32)cc1
TARGET ENTITY: SF-268
ASSIGNED CATEGORY: false (0)
//
COMPOUND: Cc1c(C(=O)c2ccc(N)c3ccccc23)c2ccccc2n1CCN1CCOCC1
TARGET ENTITY: SF-268
ASSIGNED CATEGORY: false (0)
//
COMPOUND: COc1ccc(S(=O)(=O)c2nnc(S(=O)(=O)Cc3ccccc3)s2)cc1
TARGET ENTITY: SF-268
ASSIGNED CATEGORY: false (0)
//
COMPOUND: COC(=O)[C@@](C)(COC(=O)C(C)(C)C)NC(=O)OC(C)(C)C
TARGET ENTITY: SF-268
ASSIGNED CATEGORY: false (0)
//
COMPOUND: N#C/C(=C\c1cn(Cc2ccccc2)c2ccccc12)c1nn(-c2ccccc2)c(N)c1C#N
TARGET ENTITY: SF-268
ASSIGNED CATEGORY: false (0)
//
COMPOUND: Nc1ccc2nc(NCc3ccc(F)cc3)cnc2c1
TARGET ENTITY: SF-268
ASSIGNED CATEGORY: false (0)
//
COMPOUND: O=C(O)/C(=C\c1ccccc1Cl)S(=O)(=O)c1ccccc1
TARGET ENTITY: SF-268
ASSIGNED CATEGORY: false (0)
//
COMPOUND: N#CCCN(c1ccc(/C=N/c2ccccc2Cl)cc1)S(=O)(=O)c1ccccc1
TARGET ENTITY: SF-268
ASSIGNED CATEGORY: false (0)
//
COMPOUND: CC1(C)C(=O)N(O)C(C)(C)N1N=O
TARGET ENTITY: SF-268
ASSIGNED CATEGORY: false (0)
//
COMPOUND: Cc1nc2ccccc2c(=O)n1/N=C(\N=N\c1ccc(Cl)cc1)c1cccc(-c2ccco2)c1
TARGET ENTITY: SF-268
ASSIGNED CATEGORY: false (0)
//
COMPOUND: CC1=NN(C(=O)CSc2nc3ccc(I)cc3c(=O)n2Cc2ccccc2)C(=O)C1
TARGET ENTITY: SF-268
ASSIGNED CATEGORY: false (0)
//
COMPOUND: CCOC(=O)c1cc(C2CCN(Cc3ccccc3)C2=O)c(C(=O)C(=[N+]=[N-])C(C)=O)[nH]1 (configuration not stated)
TARGET ENTITY: SF-268
ASSIGNED CATEGORY: false (0)
//
COMPOUND: NC(=O)C12C3C4C1C1C2C3C41C(N)=O (configuration not stated)
TARGET ENTITY: SF-268
ASSIGNED CATEGORY: false (0)
//
COMPOUND: Cn1c(=O)c(C(=O)NC23CC4CC(CC(C4)C2)C3)c(O)c2ccccc21
TARGET ENTITY: SF-268
ASSIGNED CATEGORY: false (0)
